Tested on: PC12 mHTT^Q103 cells
EXPERIMENT DESCRIPTION: Rescue of PC12 cells from mHTT^Q103 induced cell death (Alamar blue viability)
Assay type: cell-based
STATED CONDITIONS: Rattus norvegicus, PC-12; Table 5; read-out: Cell Viability Assay EC50
ATTRIBUTE MEASURED: log10(EC50) (log10 of the value in nM)
Scale: log10; quantity: EC50; unit before log: nM

Example entries begin here.
O=c1c2ccccc2sn1CN1CCCCC1; 2.66
O=c1c2ccccc2sn1CN1CCC(CO)CC1; 2.54
O=C(Nc1ccccc1)n1sc2ccccc2c1=O; 2.68
Cc1nc2s[nH]c(=O)c2c(C)c1C; 3.34
CC(C)(C)OC(=O)NC1CCN(Cn2sc3ccccc3c2=O)CC1; 2.58
Cc1ccc(NC(=O)c2ccccc2S)c(Br)c1; 3.58
O=C(Nc1ccc(N2CCOCC2)cc1)c1ccccc1S; 2.84

Then there is this molecule:
Q: Provide measured log10(EC50) value, entry: `CC(C)(C)OC(=O)N1CCN(Cn2sc3ccccc3c2=O)CC1`
A: 2.76
